- TEST TARGET: T1, anchored ILT2 D2 domain protein (human)
- T1 construct: on CHO cells; the entry includes leader remnant, V5 tag and CD24 GPI anchor signal
- T1 sequence (chain, as listed by the source limits assumed): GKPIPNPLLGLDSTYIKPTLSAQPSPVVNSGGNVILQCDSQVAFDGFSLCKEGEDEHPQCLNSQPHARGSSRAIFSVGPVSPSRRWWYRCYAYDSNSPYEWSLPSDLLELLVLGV
- RUN DESCRIPTION: flow cytometry, CHO cells with anchored ILT2 domain proteins
READOUT: binding result

27C10 (antibody, human IgG1, V domains shown) VH: EVQLQESGPGLVKPSQSLSLTCSVTGYSITSGYYWNWIRQFPENKLEWMGYIRYDGSNNYNPSLNNRISITRDASKNQFFLKLNSVTTEDTATYYCARGWLLWFYAVDYWGQGTSVTVSS VL: DVVMTQTPLSLPVSLGDQASISCRSSQSIVHTNGNTYLEWYLQKSGQSPKLLIYKVSNRLSGVPDRFSGSGSGTDFTLKISRVEAEDLGIYYCFQGSHVPWTFGGGTKLEIK
no binding
48F12 (antibody, human IgG1, V domains shown) VH: QVQLKESGPGLVAPSQSLSITCTVSGFSLTSYGVSWVRQPPGKGLEWLGIIWGDGSTNYHSALVSRLSISKDNSKSQVFLKLNSLQTDDTATYYCAKPNWDYYAMDYWGQGTSVTVSS VL: DIQMTQTTSSLSASLGDRVTISCRASQDISNYLNWYQQKVDGTVKLLISYTSRLHSGVPSRFSGSGSGTDYSLTISNLEQEDIATYFCQQGITLPLTFGAGTKLELK
no binding
18E1 (antibody, human IgG1, V domains shown) VH: QVQLQQSGAELVKPGASVRLSCKASGYTFTAHTIHWVKQRSGQGLEWIGWLYPGSGSIKYNEKFKDKATLTADKSSSTVYMELSRLTSEDSAVYFCARHTNWDFDYWGQGTTLTVSS VL: NIVLTQSPASLAVSLGQRATISCKASQSVDYGGASYMNWYQQKPGQPPKLLIYAASNLESGIPARFSGSGSGTDLTLNIHPVEEEDAAMYYCQQSNEEPWTFGGGTKLEIK
no binding

FYI, the data here is from patent US20220025056A1.
